The entries below are paired with their reported IC50 of oxLDL uptake inhibition (DiI-oxLDL, SCC25 cells).
molecular target: human CD36 (on HEK 293 or SCC25 cells) (human, UniProt P16671 2-472); test: cell-based or functional assay
Sequence (P16671 2-472 limits assumed): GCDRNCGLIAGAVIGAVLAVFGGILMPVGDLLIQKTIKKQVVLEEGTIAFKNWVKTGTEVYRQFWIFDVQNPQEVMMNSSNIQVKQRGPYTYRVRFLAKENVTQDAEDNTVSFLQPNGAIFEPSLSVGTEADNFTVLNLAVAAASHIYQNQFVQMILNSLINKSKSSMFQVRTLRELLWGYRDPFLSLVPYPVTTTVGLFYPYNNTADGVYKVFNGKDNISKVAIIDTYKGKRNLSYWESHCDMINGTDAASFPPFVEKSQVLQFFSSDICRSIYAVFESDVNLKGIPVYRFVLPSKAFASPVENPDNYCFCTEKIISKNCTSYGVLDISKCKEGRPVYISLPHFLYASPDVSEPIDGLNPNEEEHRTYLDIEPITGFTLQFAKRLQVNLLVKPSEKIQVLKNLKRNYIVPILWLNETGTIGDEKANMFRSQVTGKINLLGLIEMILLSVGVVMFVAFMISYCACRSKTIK
Only the number, expressed in nM, is required.

Known results for binders:
binder: 36G04 (antibody, human IgG1, V domains shown, Chimeric: chicken variable regions on human IgG1 LALA (L234A/L235A); also called 036G04) VH: AVTLDESGGGLQTPGGALSLVCKASGFIFSSYGMGWVRQAPGKGLEYIAAISNDGSKADYGAAVKGRATISRDNGQSTVRLQLNNLRAEDTATYYCAKSADTGYCSWSACIADSIDAWGHGTEVIVSS VL: ALTQPSSVSAIPGETVKITCSGGGSDYGWYQQKSPGSAPVTVIYWSDNRPSNIPSRFSGSESGSTATLTITGVRAEDEAVYFCGGYDSSGSGMFGAGTTLTVL
numeric_value: 0.09

binder: 14G04 (antibody, human IgG1, V domains shown, Chimeric: mouse variable regions on human IgG1 LALA (L234A/L235A); also called 014G04) VH: QVQLQQSGAELVRSGASVRLSCTASGFNIKDYYIHWVKQRPEQGLEWIGWIDPENGDTEYAPRFQDKATMTADTSSNTAYLQLSSLTSEDTAVYYCNGWLLSGNGMDYWGQGTSVTVSS VL: DIVMTQSHKFMSTSVGDRVSITCKASQDVGTAVAWYQQKPGQSPKLLIYWASTRHTGVPDRFTGSGSGTDFTLTISNVQSEDLADYFCQQYSSYPTFGGGTKLEIK
numeric_value: 0.35

Now turn to the next binder.
// IC50 of oxLDL uptake inhibition (DiI-oxLDL, SCC25 cells) value for 34G04 (antibody, human IgG1, V domains shown, Chimeric: chicken variable regions on human IgG1 LALA (L234A/L235A); also called 034G04) VH: AVTLDESGGGLQTPGGALSLVCKASGFDFSSYAMGWVRQAPGKGLEWVAGKAKDGGGTAYGSAVKGRATISRDNGQSTVRLQLSNLRAEDTGVYYCAKSAYGDWFYGSSGPYADSIDAWGHGTEVIVSS VL: ALTQPSSVSANPGETVKITCSGGDNYAGSYYYGWYQQKSPGSAPVTVIYDDTNRPADIPSRFSGSTSGSTNTLTITGVRAEDEAVYFCGGWDSINDRNIFGAGTTLTVL : 1.06
